- System: PC-12
- Test Details: Neurotrophic activity in rat PC12 cells assessed as neurite outgrowth at 1 to 10 uM after 24 hrs
- Assay type: functional, cell-based
Activity calls are given as the source filed them. The rule behind the calls is not given here.
Quantity Name: Activity

A selection of reference data follows.
COc1cc(-c2oc3cc(C)c(C)cc3c(=O)c2O)ccc1O; inactive
CCOc1ccc(-c2cc(OC)c3ccccc3n2)cc1OCC; inactive
CCOc1cc(-c2ccc(O)c(O)c2)nc2ccccc12; Active
COc1cc(-c2cc(=O)c3cc(C)c(C)cc3o2)ccc1OCc1ccccc1; inactive
CCOc1ccc(-c2cc(=O)c3cc(C)c(C)cc3o2)cc1OCC; inactive
O=c1cc(-c2ccc(O)c(O)c2)oc2c1ccc1ccccc12; Active
COc1cc(/C=C/C(=O)c2ccc3ccccc3c2O)ccc1OCc1ccccc1; inactive
CCOc1ccc(-c2oc3cc(C)c(C)cc3c(=O)c2O)cc1OCC; inactive
Cc1cc2oc(-c3ccc(N(C)C)cc3)c(O)c(=O)c2cc1C; inactive
Cc1cc2oc(-c3ccc(O)cc3O)c(O)c(=O)c2cc1C; inactive

Shift focus to the following entry.
// sample O=c1c(O)c(-c2ccc(N3CCCC3)c(O)c2)oc2c1ccc1ccccc12 , its Activity was Active

* * *

- Test Details: Antioxidant activity against ABTS radical assessed as trolox equivalent after 4 mins by TEAC assay
- Type: functional
hey, just use 1.0 if measured Activity is less than 0.3 equiv, otherwise 0.0

Enquiry: Threshold test, Activity < 0.3 equiv: CC(C)Oc1cc(-c2ccc(O)c(O)c2)nc2ccccc12
Return: 1.0

Enquiry: Threshold test, Activity < 0.3 equiv: Cc1cc2oc(-c3ccc(N(C)C)cc3)cc(=O)c2cc1C
Return: 1.0

Enquiry: Threshold test, Activity < 0.3 equiv: Cc1cc2oc(-c3ccc(O)c(O)c3)cc(=O)c2cc1C
Return: 1.0

Enquiry: Threshold test, Activity < 0.3 equiv: Oc1ccc(-c2cc(OC3CCCC3)c3ccccc3n2)cc1O
Return: 0.0

Enquiry: Threshold test, Activity < 0.3 equiv: O=c1c(O)c(-c2ccc(O)c(O)c2)oc2ccc3ccccc3c12
Return: 0.0

Enquiry: Threshold test, Activity < 0.3 equiv: Cc1cc(O)c(C(=O)/C=C/c2ccc(O)cc2O)cc1C
Return: 0.0

Enquiry: Threshold test, Activity < 0.3 equiv: COc1cc(-c2ccc(O)c(O)c2)nc2ccccc12
Return: 0.0

Enquiry: Threshold test, Activity < 0.3 equiv: COc1cc(-c2oc3cc(C)c(C)cc3c(=O)c2O)ccc1OCc1ccccc1
Return: 1.0

Enquiry: Threshold test, Activity < 0.3 equiv: O=c1c(O)c(-c2ccc(O)c(O)c2)oc2c1ccc1ccccc12
Return: 0.0

Enquiry: Threshold test, Activity < 0.3 equiv: CCOc1ccc(-c2oc3cc(C)c(C)cc3c(=O)c2O)cc1OCC
Return: 0.0

Enquiry: Threshold test, Activity < 0.3 equiv: O=c1c(O)c(-c2ccc(O)c(O)c2)oc2ccccc12
Return: 0.0

Enquiry: Threshold test, Activity < 0.3 equiv: CCOc1ccc(/C=C/C(=O)c2ccc3ccccc3c2O)cc1OCC
Return: 1.0

Enquiry: Threshold test, Activity < 0.3 equiv: Cc1cc2oc(-c3ccc(O)cc3O)cc(=O)c2cc1C
Return: 1.0

Enquiry: Threshold test, Activity < 0.3 equiv: Cc1cc2oc(-c3ccc(N(C)C)cc3)c(O)c(=O)c2cc1C
Return: 0.0

Enquiry: Threshold test, Activity < 0.3 equiv: O=C(/C=C/c1ccc(O)c(O)c1)c1ccc2ccccc2c1O
Return: 0.0

Enquiry: Threshold test, Activity < 0.3 equiv: CCOc1ccc(-c2oc3c(ccc4ccccc43)c(=O)c2O)cc1OCC
Return: 1.0

Enquiry: Threshold test, Activity < 0.3 equiv: Cc1cc2oc(-c3ccc(O)cc3O)c(O)c(=O)c2cc1C
Return: 0.0

Enquiry: Threshold test, Activity < 0.3 equiv: COc1cc(-c2oc3cc(C)c(C)cc3c(=O)c2O)ccc1O
Return: 0.0

Enquiry: Threshold test, Activity < 0.3 equiv: COc1cc(/C=C/C(=O)c2ccc3ccccc3c2O)ccc1OCc1ccccc1
Return: 1.0

Enquiry: Threshold test, Activity < 0.3 equiv: COc1cc(-c2cc(OC)c3ccccc3n2)ccc1O
Return: 1.0

Enquiry: Threshold test, Activity < 0.3 equiv: COc1cc(-c2oc3c(ccc4ccccc43)c(=O)c2O)ccc1OCc1ccccc1
Return: 1.0

Enquiry: Threshold test, Activity < 0.3 equiv: O=c1cc(-c2ccc(O)c(O)c2)oc2c1ccc1ccccc12
Return: 1.0

Enquiry: Threshold test, Activity < 0.3 equiv: O=c1c(O)c(-c2ccc(N3CCCC3)cc2)oc2c1ccc1ccccc12
Return: 0.0

* * *

- Test Details: Antioxidant activity against ABTS radical assessed as trolox equivalent after 4 mins by TEAC assay
- Type: functional
Quantity Name: Activity (equiv)
Reply numerically in equiv, unit not repeated.

// sample Cc1cc2oc(-c3ccc(O)c(O)c3)c(O)c(=O)c2cc1C , its Activity was 1.89

// sample CC(C)Oc1cc(-c2ccc(N3CCCC3)cc2)nc2ccccc12 , its Activity was 0.27

// sample COc1cc(-c2ccc(O)cc2)nc2ccccc12 , its Activity was 0.81

* * *

- System: PC-12
- Test Details: Neurotrophic activity in rat PC12 cells assessed as neurite outgrowth at 1 to 10 uM after 24 hrs
- Assay type: functional, cell-based
Active and inactive are the calls of the source. How the calls were made is not given here.
In this exercise, the only acceptable responses are active, inactive

Enquiry: For Cc1cc(O)c(C(=O)/C=C/c2ccc(O)c(O)c2)cc1C , which call appears in the assay record?
Return: active

Enquiry: For COc1cc(-c2oc3c(ccc4ccccc43)c(=O)c2O)ccc1O , which call appears in the assay record?
Return: active

Enquiry: For COc1cc(-c2cc(=O)c3cc(C)c(C)cc3o2)ccc1O , which call appears in the assay record?
Return: inactive

Enquiry: For CN(C)c1ccc(-c2oc3c(ccc4ccccc43)c(=O)c2O)cc1 , which call appears in the assay record?
Return: inactive

Enquiry: For COc1cc(-c2cc(=O)c3ccc4ccccc4c3o2)ccc1O , which call appears in the assay record?
Return: inactive

Enquiry: For CN(C)c1ccc(-c2cc(=O)c3ccc4ccccc4c3o2)cc1 , which call appears in the assay record?
Return: inactive

Enquiry: For COc1cc(-c2oc3cc(C)c(C)cc3c(=O)c2O)ccc1OCc1ccccc1 , which call appears in the assay record?
Return: inactive

Enquiry: For COc1ccc(/C=C/C(=O)c2cc(C)c(C)cc2O)cc1OCc1ccccc1 , which call appears in the assay record?
Return: active

Enquiry: For Oc1ccc(-c2cc(OC3CCCC3)c3ccccc3n2)cc1O [CMS-121] , which call appears in the assay record?
Return: active

Enquiry: For Cc1cc2oc(-c3ccc(O)cc3O)cc(=O)c2cc1C , which call appears in the assay record?
Return: inactive

Enquiry: For Cc1cc2oc(-c3ccc(N4CCCC4)cc3)cc(=O)c2cc1C , which call appears in the assay record?
Return: inactive

Enquiry: For CC(C)Oc1cc(-c2ccc(O)cc2O)nc2ccccc12 , which call appears in the assay record?
Return: inactive

Enquiry: For COc1cc(-c2ccccc2)nc2ccccc12 , which call appears in the assay record?
Return: inactive

Enquiry: For Cc1cc(O)c(C(=O)/C=C/c2ccc(O)cc2O)cc1C , which call appears in the assay record?
Return: active

Enquiry: For COc1ccc(-c2cc(OC)c3ccccc3n2)cc1O , which call appears in the assay record?
Return: inactive

Enquiry: For O=c1c(O)c(-c2ccc(N3CCCC3)cc2)oc2c1ccc1ccccc12 , which call appears in the assay record?
Return: active

Enquiry: For O=c1c(O)c(-c2ccc(O)c(O)c2)oc2ccccc12 , which call appears in the assay record?
Return: active

Enquiry: For COc1ccc(/C=C/C(=O)c2cc(C)c(C)cc2O)cc1O , which call appears in the assay record?
Return: inactive

Enquiry: For O=c1c(O)c(-c2ccc(O)c(O)c2)oc2ccc3ccccc3c12 , which call appears in the assay record?
Return: active

Enquiry: For CC(C)Oc1cc(-c2ccc(N(C)C)cc2)nc2ccccc12 , which call appears in the assay record?
Return: inactive

Enquiry: For COc1cc(-c2ccc(O)c(O)c2)nc2ccccc12 , which call appears in the assay record?
Return: inactive

Enquiry: For COc1cc(-c2ccc(N(C)C)cc2)nc2ccccc12 , which call appears in the assay record?
Return: inactive

* * *

- Test Details: Antioxidant activity against ABTS radical assessed as trolox equivalent after 4 mins by TEAC assay
- Type: functional
I'd appreciate it if you could supply Activity values for the items below.
Reply numerically in equiv, unit not repeated.

// sample COc1cc(-c2oc3c(ccc4ccccc43)c(=O)c2O)ccc1O , its Activity was 0.63

// sample COc1ccc(-c2oc3cc(C)c(C)cc3c(=O)c2O)cc1O , its Activity was 1.74

// sample COc1cc(-c2cc(=O)c3cc(C)c(C)cc3o2)ccc1OCc1ccccc1 , its Activity was 0.09

// sample CCOc1ccc(-c2cc(=O)c3cc(C)c(C)cc3o2)cc1OCC , its Activity was 0.15

// sample CCOc1ccc(-c2cc(=O)c3ccc4ccccc4c3o2)cc1OCC , its Activity was 0.2

// sample COc1cc(-c2ccc(O)cc2O)nc2ccccc12 , its Activity was 0.05

// sample CCOc1ccc(-c2cc(OC)c3ccccc3n2)cc1OCC , its Activity was 0.12

// sample O=c1c(O)c(-c2ccc(O)c(O)c2)oc2cc(O)ccc12 , its Activity was 3

// sample COc1ccc(-c2cc(OC)c3ccccc3n2)cc1O , its Activity was 0.24

// sample O=c1c(O)c(-c2ccc(N3CCCC3)c(O)c2)oc2c1ccc1ccccc12 , its Activity was 2.1

// sample Cc1cc2oc(-c3ccc(N4CCCC4)cc3)cc(=O)c2cc1C , its Activity was 0.12
